Source of measurements: paper PMC9722955

Assay: Membrane permeability assay across MDCK-MDR1 monolayer
Details: dog
Give Papp at 120 min, 20 μM for every item shown.
Numbers only, in ×10⁻⁶ cm/s.

{"columns": ["smilesText", "Papp at 120 min, 20 μM (×10⁻⁶ cm/s)"],
 "data": [
  ["Oc1ccc2c(c1)OCO2", 35.3]
]}

Query string: I'd like to know its Papp at 120 min, 20 μM. The compound in question is c1cc2c(cc1[C@H]1OC[C@H]3[C@@H]1CO[C@@H]3c1ccc3c(c1)OCO3)OCO2
Result string: 6.75

###

Target: recombinant human CYP46A1 (Homo sapiens, UniProt Q9Y6A2)
Sequence (Q9Y6A2 whole entry): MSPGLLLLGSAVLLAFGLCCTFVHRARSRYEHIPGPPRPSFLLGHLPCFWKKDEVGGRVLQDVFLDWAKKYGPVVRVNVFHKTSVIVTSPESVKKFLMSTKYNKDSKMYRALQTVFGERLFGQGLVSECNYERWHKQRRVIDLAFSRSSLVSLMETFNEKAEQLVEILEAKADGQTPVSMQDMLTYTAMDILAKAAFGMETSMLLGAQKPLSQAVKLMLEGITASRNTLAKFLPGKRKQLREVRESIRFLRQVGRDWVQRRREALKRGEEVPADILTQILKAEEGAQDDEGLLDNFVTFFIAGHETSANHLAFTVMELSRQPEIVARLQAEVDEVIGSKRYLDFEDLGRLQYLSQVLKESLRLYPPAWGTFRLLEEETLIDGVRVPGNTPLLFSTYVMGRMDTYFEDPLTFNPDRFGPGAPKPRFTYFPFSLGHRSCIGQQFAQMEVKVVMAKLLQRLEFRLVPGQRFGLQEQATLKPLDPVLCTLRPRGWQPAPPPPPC
Assay: Inhibition of CYP46A1-catalysed testosterone 16β-hydroxylation
Details: testosterone 2–150 μM
experimentalEndpoint: pKi
One number for each entry, as −log10 of the molar value.

Below, each entry is followed by its recorded pKi result.
{"columns": ["smilesText", "pKi"],
 "data": [
  ["c1cc2c(cc1[C@H]1OC[C@H]3[C@@H]1CO[C@@H]3c1ccc3c(c1)OCO3)OCO2", 5.16],
  ["c1cc2c(cc1O[C@H]1OC[C@H]3[C@@H]1CO[C@@H]3c1ccc3c(c1)OCO3)OCO2", 5.40]
]}

Shift focus to the following entry.
Query string: I'd like to know its pKi. The compound in question is Oc1ccc2c(c1)OCO2
Result string: 4.73

###

Give IC50 for every item shown.
Target: recombinant human CYP46A1 (Homo sapiens)
Experiment: Inhibition of CYP46A1-catalysed testosterone 16β-hydroxylation
Conditions: testosterone 10 μM as substrate
Answers are plain numbers, in µM.

{"columns": ["compound", "IC50 (µM)"],
 "data": [
  ["c1cc2c(cc1[C@H]1OC[C@H]3[C@@H]1CO[C@@H]3c1ccc3c(c1)OCO3)OCO2 [Sesamin, sesamin]", 6.02],
  ["c1cc2c(cc1O[C@H]1OC[C@H]3[C@@H]1CO[C@@H]3c1ccc3c(c1)OCO3)OCO2 [Sesamolin, sesamolin]", 3.34]
]}

Shift focus to the following entry.
Query string: I'd like to know its IC50. The compound in question is Oc1ccc2c(c1)OCO2 [Sesamol, sesamol]
Result string: 21.3
